system: PCSK9 gene; assay: PCSK9 gRNA/SpCas9 editing in primary human hepatocytes (Tables 2, 4); assay type: cell-based; settings: 100 ng/RNA/mL; SpCas9 mRNA MS002 1:1 by weight
In the oligonucleotide strings, read from the 5' end, every base follows the letter of its sugar. An asterisk marks phosphorothioate; unmarked linkages are phosphodiester. Other units and linkages are bracketed, terminal groups are in braces. A string of capitals states the bases alone. m = 2'-O-methyl; r = 2'-OH (RNA)
measured.parameter: Human Primary Hepatocyte Editing % 100

Please look up its Human Primary Hepatocyte Editing % 100: GA183: PCSK9 gRNA; protospacer CTACGTGGTGGTGCTGAAGG (SEQ ID NO: 177) (nucleic acid) guide: mC*mU*mA*rCrGrUrGrGrUrGrGrUrGrCrUrGrArArGrGrGrUrUrUrUrArGrArGrCrUrArGrArArArUrArGrCrArArGrUrUrArArArArUrArArGrGrCrUrArGrUrCrCrGrUrUrArUrCrArArCrUrUrGrArArArArArGrUrGrGrCrArCrCrGrArGrUrCrGrGrUrGrCrU*mU*mU*mU
2.21%

For the molecule GA215: PCSK9 gRNA; protospacer CAGCGGCCGGGATGCCGGCG (SEQ ID NO: 209) (nucleic acid, sugars from the 5' end m3 r94 m3, linkages s3 o93 s3 (s phosphorothioate, o phosphodiester), T or U not given here) guide: CAGCGGCCGGGAUGCCGGCGGUUUUAGAGCUAGAAAUAGCAAGUUAAAAUAAGGCUAGUCCGUUAUCAACUUGAAAAAGUGGCACCGAGUCGGUGCUUUU , what Human Primary Hepatocyte Editing % 100 is on record?
0.13%

Fill blank: measured Human Primary Hepatocyte Editing % 100 of the molecule GA201: PCSK9 gRNA; protospacer CAGCATACAGAGTGACCACC (SEQ ID NO: 195) (nucleic acid, sugars from the 5' end m3 r94 m3, linkages s3 o93 s3 (s phosphorothioate, o phosphodiester), T or U not given here) guide: CAGCAUACAGAGUGACCACCGUUUUAGAGCUAGAAAUAGCAAGUUAAAAUAAGGCUAGUCCGUUAUCAACUUGAAAAAGUGGCACCGAGUCGGUGCUUUU is ____.
3.29%

Can you look up the measured Human Primary Hepatocyte Editing % 100 of GA197: PCSK9 gRNA; protospacer AGTGACCACCGGGAAATCGA (SEQ ID NO: 191) (nucleic acid, sugars from the 5' end m3 r94 m3, linkages s3 o93 s3 (s phosphorothioate, o phosphodiester), T or U not given here) guide: AGUGACCACCGGGAAAUCGAGUUUUAGAGCUAGAAAUAGCAAGUUAAAAUAAGGCUAGUCCGUUAUCAACUUGAAAAAGUGGCACCGAGUCGGUGCUUUU for me?
1.22%
